- system: Phosphodiesterase 4 (Bos taurus)
- assay.explanation: In vitro inhibition of bovine smooth muscle phosphodiesterase 4
IC50 values, listed per item

INSERT INTO measurements (structure_string, measured_value) VALUES
  ('COc1ccc(-c2ccc(O)nn2)cc1OC', '2000 nM');

Exercise: Tell me measured IC50 for COc1ccc(-c2ccc(=O)n(Cc3ccccc3)n2)cc1OC please.
Key: 60 nM

Exercise: Tell me measured IC50 for COc1ccc(-c2ccc(=O)n(CCCCCc3ccccc3)n2)cc1OC please.
Key: 0.9 nM

Exercise: Tell me measured IC50 for COc1ccc(-c2ccc(=O)n(CCCCCCc3ccccc3)n2)cc1OC please.
Key: 80 nM

Exercise: Tell me measured IC50 for COc1ccc(-c2cc(CCCc3ccccc3)c(O)nn2)cc1OC please.
Key: > 10000 nM

Exercise: Tell me measured IC50 for COc1ccc(-c2ccc(=O)n(CCCCCCN=C(N)N)n2)cc1OC please.
Key: 60000 nM

Exercise: Tell me measured IC50 for COc1ccc(-c2ccc(=O)n(CCCCCCN)n2)cc1OC please.
Key: 20 nM

Exercise: Tell me measured IC50 for COc1ccc(-c2ccc(=O)n(CCCc3ccccc3)n2)cc1OC please.
Key: 20 nM

Exercise: Tell me measured IC50 for COc1ccc(-c2cc(Cc3ccccc3)c(O)nn2)cc1OC please.
Key: 8000 nM

Recorded values, source ChEMBL document CHEMBL1139529.
